# measured-target: GluA1o-γ8 (GRIA1o-CACNG8 fusion construct; TARP γ8 dependent AMPA receptor) (Homo sapiens (Human), UniProt P42261+Q8WXS5)
# Sequence (P42261 other isoform, or with tags, fused parts or gaps): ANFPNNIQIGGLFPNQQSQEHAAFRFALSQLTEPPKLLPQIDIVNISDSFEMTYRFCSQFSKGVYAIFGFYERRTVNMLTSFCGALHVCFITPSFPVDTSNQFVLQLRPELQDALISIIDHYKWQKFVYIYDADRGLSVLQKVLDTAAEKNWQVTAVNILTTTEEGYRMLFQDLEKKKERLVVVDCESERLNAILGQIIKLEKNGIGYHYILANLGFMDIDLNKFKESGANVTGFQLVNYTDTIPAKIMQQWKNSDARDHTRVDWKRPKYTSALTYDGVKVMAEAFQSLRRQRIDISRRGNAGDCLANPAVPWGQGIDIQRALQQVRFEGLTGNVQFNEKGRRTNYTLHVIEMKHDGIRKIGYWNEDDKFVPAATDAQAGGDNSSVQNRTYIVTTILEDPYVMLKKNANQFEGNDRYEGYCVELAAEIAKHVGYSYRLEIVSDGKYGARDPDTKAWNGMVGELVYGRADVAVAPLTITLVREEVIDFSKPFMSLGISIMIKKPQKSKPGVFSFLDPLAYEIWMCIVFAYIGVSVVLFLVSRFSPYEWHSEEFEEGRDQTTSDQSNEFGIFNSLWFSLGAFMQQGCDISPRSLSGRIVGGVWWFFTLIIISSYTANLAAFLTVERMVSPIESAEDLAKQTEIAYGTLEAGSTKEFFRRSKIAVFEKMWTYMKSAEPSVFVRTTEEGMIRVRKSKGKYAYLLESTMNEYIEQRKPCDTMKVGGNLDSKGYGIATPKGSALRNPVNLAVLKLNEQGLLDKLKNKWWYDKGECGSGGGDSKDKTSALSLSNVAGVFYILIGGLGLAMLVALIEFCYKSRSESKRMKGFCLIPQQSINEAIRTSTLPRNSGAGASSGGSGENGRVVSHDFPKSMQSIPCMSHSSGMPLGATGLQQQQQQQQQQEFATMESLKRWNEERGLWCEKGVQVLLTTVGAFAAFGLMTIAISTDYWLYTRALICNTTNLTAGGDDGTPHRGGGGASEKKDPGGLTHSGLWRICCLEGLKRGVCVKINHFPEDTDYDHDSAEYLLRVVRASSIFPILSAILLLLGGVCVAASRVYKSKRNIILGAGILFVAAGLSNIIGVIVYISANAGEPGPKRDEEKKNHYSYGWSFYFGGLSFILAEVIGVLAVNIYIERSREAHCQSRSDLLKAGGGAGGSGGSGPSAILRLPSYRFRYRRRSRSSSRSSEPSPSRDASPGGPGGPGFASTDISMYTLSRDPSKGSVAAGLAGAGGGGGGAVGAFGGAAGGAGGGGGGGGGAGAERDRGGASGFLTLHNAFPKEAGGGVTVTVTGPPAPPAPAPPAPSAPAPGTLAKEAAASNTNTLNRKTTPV
# assay-text: Calcium flux assay (FLIPR), inhibition of glutamate response of GluA1o-γ8 channel
# Format: cell-based
# condition-details: HEK293 cells stably expressing GRIA1o-CACNG8 fusion; 15 μM glutamate; pIC50 = negative log of IC50 in molar; read-out: GluR1-γ8 (pIC50) (converted)
assay-readout: IC50 (nM)

CC(=O)N1CCCN(c2nccn3c(-c4ccc(O)cc4)c(-c4ccc(Cl)cc4)nc23)CC1 : 25.1
COc1nccn2c(-c3ccc4[nH]c(=O)[nH]c4c3)c(-c3ccc(F)cc3)nc12 : 25.1
O=C1Cc2cc(-c3c(-c4ccc(F)cc4)nc4c(N5CC[C@H](O)[C@H](F)C5)nccn34)ccc2N1 (relative stereo) : 0.316
Cc1cnc(N2CCOCC2)n2nc(C(C)C)c(-c3ccc4c(c3)CC(=O)N4)c12 : 79.4

I. O=C(NCc1ccccc1)c1nc2c(N3CCOCC3)nccn2c1-c1ccc2[nH]c(=O)[nH]c2c1
II. CC(=O)N1CCN(c2nccn3c(-c4ccc5c(c4)CC(=O)N5)c(Cc4ccccc4)nc23)CC1
III. O=C1Cc2cc(-c3c(-c4ccc(F)cc4)nc4c(F)nccn34)ccc2N1
IV. O=C1Cc2cc(-c3c(-c4ccccc4)nc4c(N5CCC(F)CC5)nccn34)ccc2N1
V. CC(=O)N1CCN(c2nccc3c(-c4ccc5c(c4)CC(=O)N5)c(-c4ccc(F)cc4)nn23)CC1
### Prompt Order each entry by recorded IC50, climbing from the minimum. Use the labels to give the requested order.
### Response IV, V, II, I, III

1. N#Cc1ccc(-c2nc3c(N4CCNC(=O)C4)nccn3c2-c2ccc3c(c2)CC(=O)N3)cc1
2. CN1CCN(c2nccn3c(-c4ccc5c(c4)CC(=O)N5)c(-c4ccc(F)cc4)nc23)CC1=O
3. O=c1[nH]c2ccc(-c3c(C4CC4)nc4cnc(C(F)(F)F)cn34)cc2s1
4. O=C1Cc2cc(-c3c(-c4ccc(F)cc4)nc4c(N5CCC6(CC5)N=N6)nccn34)ccc2N1
5. Oc1ccc(-c2c(-c3ccc(F)cc3)nc3c(N4CC5(COC5)C4)nccn23)cc1
### Prompt Order each entry by recorded IC50, climbing from the minimum. Use the labels to give the requested order.
### Response 4, 2, 1, 5, 3

P. CC(=O)N1CCN(c2nccn3c(-c4ccc(O)cc4)c(-c4ccc(Cl)cc4)nc23)CC1
Q. C[C@@H]1COCCN1c1nccn2c(-c3ccc4c(c3)CC(=O)N4)c(-c3ccc(F)cc3)nc12
### Prompt Could you check which of P and Q has a smaller value for IC50? Returns: label corresponding to the selected item.
### Response P

Hey, just so you know, these numbers are from patent US10513523B2.
